Data origin, for the record: patent EP4775580A1

Test: Pharmacokinetics in rats after single IV and PO administration (LC-MS/MS)
Format: in vivo, male SD rats
Conditions: rat, in vivo; SD rats, PO 30 mg/kg, 0.5% MC (pH 5.03); read-out: PO AUC(0-t)
MEASUREMENT_LABEL: AUC(0-t)

Assign AUC(0-t) to the following record: CCN(C(=O)c1cc(F)ccc1N1CCN([C@@H]2CCN([C@H](CCCN(C)CCOC)C(C)C)C2)c2ncncc21)C(C)C [Example 3]
8500 ng·h/mL

###

Experiment: Pharmacokinetics in rats after single IV and PO administration (LC-MS/MS)
Assay type: in vivo, male SD rats
Details: male, rat, plasma; SD rats, IV; comparative compounds, dose 1 mg/kg according to Table 3; read-out: IV Vss
This section presents compounds with their documented Vd values.
Provide the reading as a plain figure in L/kg.

Examples from the recorded data:
{"columns": ["STRUCTURE", "UNIT_ANNOTATION", "Vd"],
 "data": [
  ["CCN(C(=O)c1cc(F)ccc1N1CCN(C2CCN(Cc3ccc4c(cc(C#N)n4CC4COC4)c3C)CC2)c2ncncc21)C(C)C", "L/kg", 59.4],
  ["CCN(C(=O)c1cc(F)ccc1N1CCN(C2CCN(Cc3ccc4c(cc(C#N)n4C[C@@H]4CCNC4)c3C)CC2)c2ncncc21)C(C)C", "L/kg", 9.61]
]}

Report Vd, nothing else, for this compound: CCN(C(=O)c1cc(F)ccc1N1CCN(C2CCN(Cc3ccc4[nH]c(C#N)cc4c3C)CC2)c2ncncc21)C(C)C
6.62

Return Vd for the following compound: CCN(C(=O)c1cc(F)ccc1N1CCN(C2CCN(Cc3ccc4c(cc(C#N)n4CC4CNC4)c3C)CC2)c2ncncc21)C(C)C
30.6
